Molecular target: human GLP-1 receptor (human, UniProt P43220 24-463)
Test: cell-based or functional assay
Starred links: 1 amine or outer side, 2 acyl side, 3 side chain; linkers in the order of their positions; H or OH if unused. Non-standard residues stand in square brackets, D forms with d. Groups on a side chain read outwards from the residue. *: point of attachment. C20 diacid = O=C(O)CCCCCCCCCCCCCCCCCCC(=O)*; C18 diacid = O=C(O)CCCCCCCCCCCCCCCCC(=O)*; C16 diacid = O=C(O)CCCCCCCCCCCCCCC(=O)*; γGlu = O=C(O)[C@H](CCC(=O)[*:2])N[*:1]; AEEA = NCCOCCOCC(=O)O; Aib = CC(C)(N)C(=O)O
measured-metric: Human GLP-1R potency [EC50 (pM)]
Write the number in pM without appending the unit.

# count of solved cases: 2
binder	numeric-result
Compound 0127 (peptide) peptide: H[Aib]EGTFTSDVSSYLEEQAARK([AEEA-AEEA-γGlu-C18 diacid])FIAWLVRGK([AEEA-AEEA-γGlu-C18 diacid])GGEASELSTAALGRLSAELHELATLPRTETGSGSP-NH2	7.1
Compound 0529 (peptide) peptide: H[Aib]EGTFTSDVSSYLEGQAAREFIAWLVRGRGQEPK([AEEA-AEEA-γGlu-C20 diacid])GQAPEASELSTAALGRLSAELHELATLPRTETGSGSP-NH2	6.4

Input line: Please give the documented Human GLP-1R potency [EC50 (pM)] of Compound 0475 (peptide) peptide: HAEGTFTSDK([AEEA-AEEA-γGlu-C16 diacid])SSYLEEK([AEEA-AEEA-γGlu-C16 diacid])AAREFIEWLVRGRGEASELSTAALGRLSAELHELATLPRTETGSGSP-NH2
Output line: 70.4

Input line: Quick one: give measured Human GLP-1R potency [EC50 (pM)] for Compound 0101 (Lys21 and Lys30 each (10-(4-carboxyphenoxy)decanoyl-gGlu-Ado-Ado); C-terminal amide) peptide: HWEGTFTSDVSSYLEEQAARKFIEWLVRGKGEGGGGGGGGGEASELSTAALGRLSAELHELATLPRTETGSGSP
Output line: 7.1
